Every entry's value here was drawn from patent US20250339569A1.

target: human carbonic anhydrase 9 (CAIX) (human, UniProt Q16790 38-459); test: FACS competition on HT-29 cells against tracer 3BP-2776; pIC50 category C = pIC50 6.1-7.0
Starred links: 1 amine or outer side, 2 acyl side, 3 side chain; linkers in the order of their positions; H or OH if unused. Positions of bridges follow the written chain, without caps; N, C: chain ends. Non-standard residues stand in square brackets, D forms with d. mXylylene = c1cc(C[*:1])cc(C[*:2])c1; Bta = N[C@@H](Cc1csc2ccccc12)C(=O)O; Sar = CNCC(=O)O
Measured pIC50 accompanies every entry in the list below.
ASSAY_ENDPOINT: pIC50

Ac-VYCE[Sar]DWL[dA]WQC-NH2 (linker 3-12 via mXylylene; SMILES CC(=O)N[C@H](C(=O)N[C@@H](Cc1ccc(O)cc1)C(=O)N[C@H]1CSCc2cccc(c2)CSC[C@@H](C(N)=O)NC(=O)[C@H](CCC(N)=O)NC(=O)[C@H](Cc2c[nH]c3ccccc23)NC(=O)[C@@H](C)NC(=O)[C@H](CC(C)C)NC(=O)[C@H](Cc2c[nH]c3ccccc23)NC(=O)[C@H](CC(=O)O)NC(=O)CN(C)C(=O)[C@H](CCC(=O)O)NC1=O)C(C)C, also called Ac-Val-Tyr-[Cys(3MeBn)-Glu-Nmg-Asp-Trp-Leu-ala-Trp-Gln-Cys]-NH2) [3BP-3309]    6.1 to 7 pic50
Ac-VYCE[Sar]DWLT[Bta]QC-NH2 (linker 3-12 via mXylylene; SMILES CC(=O)N[C@H](C(=O)N[C@@H](Cc1ccc(O)cc1)C(=O)N[C@H]1CSCc2cccc(c2)CSC[C@@H](C(N)=O)NC(=O)[C@H](CCC(N)=O)NC(=O)[C@H](Cc2csc3ccccc23)NC(=O)[C@H]([C@@H](C)O)NC(=O)[C@H](CC(C)C)NC(=O)[C@H](Cc2c[nH]c3ccccc23)NC(=O)[C@H](CC(=O)O)NC(=O)CN(C)C(=O)[C@H](CCC(=O)O)NC1=O)C(C)C, also called Ac-Val-Tyr-[Cys(3MeBn)-Glu-Nmg-Asp-Trp-Leu-Thr-Bta-Gln-Cys]-NH2) [3BP-3315]    6.1 to 7 pic50
Ac-VYCEGDWATWQC-NH2 (linker 3-12 via mXylylene; SMILES CC(=O)N[C@H](C(=O)N[C@@H](Cc1ccc(O)cc1)C(=O)N[C@H]1CSCc2cccc(c2)CSC[C@@H](C(N)=O)NC(=O)[C@H](CCC(N)=O)NC(=O)[C@H](Cc2c[nH]c3ccccc23)NC(=O)[C@H]([C@@H](C)O)NC(=O)[C@H](C)NC(=O)[C@H](Cc2c[nH]c3ccccc23)NC(=O)[C@H](CC(=O)O)NC(=O)CNC(=O)[C@H](CCC(=O)O)NC1=O)C(C)C) [3BP-3055]    6.1 to 7 pic50
